# ASSAY EXPLANATION: Clearance in mouse plasma at 10 mg/kg, po
# Assay type: ADME, organism-based
# Parameters: dose 10 mg/kg, route oral
EXPERIMENTAL ENDPOINT: CL/F (mL/min/kg)
State the answer as a number, implicitly in mL/min/kg.

Provide only the value of recorded CL/F for "CC1(C)[C@H]2CC=C(CN3CCC(Nc4nc(-c5cc(C(F)(F)F)cc(C(F)(F)F)c5)ns4)CC3)[C@@H]1C2"
2.8

---

# ASSAY EXPLANATION: Intrinsic clearance in mouse microsomes at 0.5 uM
# Assay type: ADME, Microsome
Please note: Fulfilled applies when clearance is 200 µL/min/mg or greater, and Not fulfilled applies otherwise.

>  <STRUCTURE SMILES STRING>
CC1(C)[C@H]2CC=C(CN3CCC(N4CC(=O)N(c5cc(F)cc(C(F)(F)F)c5)C4=O)CC3)[C@@H]1C2

>  <ASSIGNED CLASS>
Fulfilled

$$$$
>  <STRUCTURE SMILES STRING>
CC1(C)[C@H]2CC=C(CN3CCC(Nc4nc(-c5cc(C(F)(F)F)cc(C(F)(F)F)c5)cs4)CC3)[C@@H]1C2

>  <ASSIGNED CLASS>
Not fulfilled

$$$$
>  <STRUCTURE SMILES STRING>
CC1(C)[C@H]2CC=C(CN3CCC(Nc4nc5ccc(Br)cc5s4)CC3)[C@@H]1C2

>  <ASSIGNED CLASS>
Not fulfilled

$$$$

Has "CN(c1nc2ccccc2s1)C1CCN(CC2=CC[C@H]3C[C@@H]2C3(C)C)CC1" a recorded clearance greater than or equal to 200 µL/min/mg?
Not fulfilled

Form field: clearance at least 200 µL/min/mg? Entry: "CC1(C)[C@H]2CC=C(CN3CCC(N4CCN(c5cc(F)cc(C(F)(F)F)c5)C4=O)CC3)[C@@H]1C2"
Not fulfilled

State whether the measured clearance reaches 200 µL/min/mg, counting equality as reaching it, for "CC1(C)[C@H]2CC=C(CN3CCC(N4CC(=O)N(c5ccc(Cl)c(C(F)(F)F)c5)C4=O)CC3)[C@@H]1C2"
Fulfilled

Quick check, clearance >= 200 µL/min/mg? "CSc1cccc(N2C(=O)CN(C3CCN(CC4=CC[C@H]5C[C@@H]4C5(C)C)CC3)C2=O)c1"
Fulfilled

Is the recorded value of clearance equal to or greater than 200 µL/min/mg for this compound? "CN(c1nc2cc(Cl)ccc2s1)C1CCN(CC2=CC[C@H]3C[C@@H]2C3(C)C)CC1"
Not fulfilled

// inclusive: clearance at least 200 µL/min/mg? input: "CC1(C)[C@H]2CC=C(CN3CCC(N4CCN(c5cc(C(F)(F)F)cc(C(F)(F)F)c5)C4=O)CC3)[C@@H]1C2"
Not fulfilled

Can "CC1(C)[C@H]2CC=C(CN3CCC(Nc4nc(-c5cc(C(F)(F)F)cc(C(F)(F)F)c5)ns4)CC3)[C@@H]1C2" be said to have clearance at or above 200 µL/min/mg?
Not fulfilled

Evaluate "CC1(C)[C@H]2CC=C(CN3CCC(Nc4nc5ccccc5s4)CC3)[C@@H]1C2" : clearance at minimum 200 µL/min/mg?
Not fulfilled

API: above_or_equal(metric=clearance, cutoff=200 µL/min/mg) for item "CC1(C)[C@H]2CC=C(CN3CCC(N4CC(=O)N(c5cccc(C(F)(F)F)c5)C4=O)CC3)[C@@H]1C2"
Fulfilled

State whether the measured clearance reaches 200 µL/min/mg, counting equality as reaching it, for "CCc1cccc(N2C(=O)CN(C3CCN(CC4=CC[C@H]5C[C@@H]4C5(C)C)CC3)C2=O)c1"
Not fulfilled

Quick check, clearance >= 200 µL/min/mg? "CC1(C)[C@H]2CC=C(CN3CCC(N4CC(=O)N(c5cc(C(F)(F)F)cc(C(F)(F)F)c5)C4=O)CC3)[C@@H]1C2"
Fulfilled

Check this compound for clearance at or above 200 µL/min/mg: "CC1(C)[C@H]2CC=C(CN3CCC(Nc4nc5c(Br)cccc5s4)CC3)[C@@H]1C2"
Not fulfilled

Reported clearance reaches at least 200 µL/min/mg for "CN(c1nc2ccc(Cl)cc2s1)C1CCN(CC2=CC[C@H]3C[C@@H]2C3(C)C)CC1" ?
Not fulfilled

---

# STUDY TARGET: Cytochrome P450 2D6 (Homo sapiens, UniProt P10635)
# Sequence (P10635 whole entry): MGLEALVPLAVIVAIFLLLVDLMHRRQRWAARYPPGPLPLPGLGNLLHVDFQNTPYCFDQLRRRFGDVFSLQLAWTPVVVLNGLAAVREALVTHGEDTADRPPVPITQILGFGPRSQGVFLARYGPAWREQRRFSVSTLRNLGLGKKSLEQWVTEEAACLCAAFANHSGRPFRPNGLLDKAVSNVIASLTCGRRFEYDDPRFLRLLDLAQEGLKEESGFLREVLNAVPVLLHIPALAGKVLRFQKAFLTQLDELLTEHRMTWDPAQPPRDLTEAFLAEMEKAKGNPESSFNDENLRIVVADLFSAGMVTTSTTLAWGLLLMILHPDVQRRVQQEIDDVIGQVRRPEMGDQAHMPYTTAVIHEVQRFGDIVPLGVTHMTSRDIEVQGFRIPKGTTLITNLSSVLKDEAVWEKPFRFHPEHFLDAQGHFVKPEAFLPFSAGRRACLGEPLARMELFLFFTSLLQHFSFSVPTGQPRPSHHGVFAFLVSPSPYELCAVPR
# ASSAY EXPLANATION: Inhibition of CYP2D6
# Type: ADME
Quick list: Activity per entry.
Kindly answer with a numeric value in µM, unit omitted.

Below are worked cases with known answers.
>  <STRUCTURE SMILES STRING>
CC1(C)[C@H]2CC=C(CN3CCC(Nc4nc5ccccc5s4)CC3)[C@@H]1C2

>  <ENDPOINT UNIT>
µM

>  <Activity>
13

$$$$
>  <STRUCTURE SMILES STRING>
CC1(C)[C@H]2CC=C(CN3CCC(Nc4nc5c(Br)cccc5s4)CC3)[C@@H]1C2

>  <ENDPOINT UNIT>
µM

>  <Activity>
1.2

$$$$
>  <STRUCTURE SMILES STRING>
CN(c1nc2cccc(Cl)c2s1)C1CCN(CC2=CC[C@H]3C[C@@H]2C3(C)C)CC1

>  <ENDPOINT UNIT>
µM

>  <Activity>
4.1

$$$$
>  <STRUCTURE SMILES STRING>
CC1(C)[C@H]2CC=C(CN3CCC(Nc4nc5ccc(Br)cc5s4)CC3)[C@@H]1C2

>  <ENDPOINT UNIT>
µM

>  <Activity>
0.7

$$$$

Proceed to the following item.
// fetch Activity given entry "CC1(C)[C@H]2CC=C(CN3CCC(Nc4nc(-c5cc(C(F)(F)F)cc(C(F)(F)F)c5)ns4)CC3)[C@@H]1C2"
15

---

# STUDY TARGET: C-X-C chemokine receptor type 3 (Homo sapiens)
# Sequence (P49682 whole entry): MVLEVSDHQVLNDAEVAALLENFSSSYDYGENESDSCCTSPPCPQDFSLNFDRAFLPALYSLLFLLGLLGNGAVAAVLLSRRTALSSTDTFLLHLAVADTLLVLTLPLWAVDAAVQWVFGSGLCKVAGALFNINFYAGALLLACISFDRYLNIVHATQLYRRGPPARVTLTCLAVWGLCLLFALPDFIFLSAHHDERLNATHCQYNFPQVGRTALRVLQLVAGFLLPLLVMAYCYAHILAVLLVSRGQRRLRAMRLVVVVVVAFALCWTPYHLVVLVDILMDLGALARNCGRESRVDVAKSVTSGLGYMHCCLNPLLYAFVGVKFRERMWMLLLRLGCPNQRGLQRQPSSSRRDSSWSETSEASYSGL
# ASSAY EXPLANATION: Binding affinity to human CXCR3 receptor expressed in CHO membrane by ITAC-stimulated GTP gammaS assay
EXPERIMENTAL ENDPOINT: log10(Ki) (log10 of the value in nM)
Would you kindly interpret these values as log10 of Ki expressed in nM?

>  <STRUCTURE SMILES STRING>
CCc1cccc(N(C)C(=O)NC2CCN(CC3=CC[C@H]4C[C@@H]3C4(C)C)CC2)c1

>  <log10(Ki)>
3.54

$$$$

Specify measured log10(Ki) for "CC1(C)[C@H]2CC=C(CN3CCC(Nc4nc5c(Br)cccc5s4)CC3)[C@@H]1C2" .
2.18

Please give the documented log10(Ki) of "CC1(C)[C@H]2CC=C(CN3CCC(Nc4nc(-c5cc(C(F)(F)F)cc(C(F)(F)F)c5)cs4)CC3)[C@@H]1C2"
2.41

Give the reported log10(Ki) for this compound. "CC1(C)[C@H]2CC=C(CN3CCC(N4CC(=O)N(c5cc(F)cc(C(F)(F)F)c5)C4=O)CC3)[C@@H]1C2"
2.00

---

# ASSAY EXPLANATION: Partition coefficient, log D at pH 7.4
# CONDITIONS: octanol/water
EXPERIMENTAL ENDPOINT: logD
API note: the answer field is a bare number with no unit suffix.

Look up and state reported logD for "CN(c1nc2cc(Cl)ccc2s1)C1CCN(CC2=CC[C@H]3C[C@@H]2C3(C)C)CC1"
5

Read off the recorded logD for "CC(=O)c1cccc(N2C(=O)CN(C3CCN(CC4=CC[C@H]5C[C@@H]4C5(C)C)CC3)C2=O)c1"
3.4

Dear colleague, please send me the reported logD for "CN(c1nc2ccc(Cl)cc2s1)C1CCN(CC2=CC[C@H]3C[C@@H]2C3(C)C)CC1" when you can.
5

Tell us which logD value is on record for "CC1(C)[C@H]2CC=C(CN3CCC(N4CC(=O)N(c5cccc(C(F)(F)F)c5)C4=O)CC3)[C@@H]1C2"
4.6

Name the recorded logD of the compound listed here: "CC1(C)[C@H]2CC=C(CN3CCC(N4CC(=O)N(c5ccc(Cl)c(C(F)(F)F)c5)C4=O)CC3)[C@@H]1C2"
5.3

---

Quick reference for logD among some compounds
# ASSAY EXPLANATION: Partition coefficient, log D at pH 7.4
# CONDITIONS: octanol/water
Answer with the value's number alone.

>  <STRUCTURE SMILES STRING>
CC1(C)[C@H]2CC=C(CN3CCC(Nc4nc(-c5ccccc5)cs4)CC3)[C@@H]1C2

>  <DATA VALUE>
4.7

$$$$

Using the record for "CC1(C)[C@H]2CC=C(CN3CCC(Nc4nc(-c5cc(C(F)(F)F)cc(C(F)(F)F)c5)ns4)CC3)[C@@H]1C2" , state its measured logD.
5

// Input: "CSc1cccc(N2C(=O)CN(C3CCN(CC4=CC[C@H]5C[C@@H]4C5(C)C)CC3)C2=O)c1" . Output its logD only.
5

Please look at this compound and report its logD: "CCc1cccc(N2C(=O)CN(C3CCN(CC4=CC[C@H]5C[C@@H]4C5(C)C)CC3)C2=O)c1"
4.7

Return reported logD. Input compound: "CC1(C)[C@H]2CC=C(CN3CCC(N4CC(=O)N(c5cc(F)cc(C(F)(F)F)c5)C4=O)CC3)[C@@H]1C2"
4.85

Supply measured logD of "CN(c1nc2ccccc2o1)C1CCN(CC2=CC[C@H]3C[C@@H]2C3(C)C)CC1" in your reply.
4.6

Write down logD measured for item "CN(c1nc2c(Cl)cccc2s1)C1CCN(CC2=CC[C@H]3C[C@@H]2C3(C)C)CC1"
5

Given "CN(c1nc2ccccc2[nH]1)C1CCN(CC2=CC[C@H]3C[C@@H]2C3(C)C)CC1" , respond with its logD.
4.2

Specify logD for "CC1(C)[C@H]2CC=C(CN3CCC(N4CCN(c5cc(F)cc(C(F)(F)F)c5)C4=O)CC3)[C@@H]1C2" and stop.
4.6
